Biological target: UniProtKB P35524
Sequence (P35524 whole entry): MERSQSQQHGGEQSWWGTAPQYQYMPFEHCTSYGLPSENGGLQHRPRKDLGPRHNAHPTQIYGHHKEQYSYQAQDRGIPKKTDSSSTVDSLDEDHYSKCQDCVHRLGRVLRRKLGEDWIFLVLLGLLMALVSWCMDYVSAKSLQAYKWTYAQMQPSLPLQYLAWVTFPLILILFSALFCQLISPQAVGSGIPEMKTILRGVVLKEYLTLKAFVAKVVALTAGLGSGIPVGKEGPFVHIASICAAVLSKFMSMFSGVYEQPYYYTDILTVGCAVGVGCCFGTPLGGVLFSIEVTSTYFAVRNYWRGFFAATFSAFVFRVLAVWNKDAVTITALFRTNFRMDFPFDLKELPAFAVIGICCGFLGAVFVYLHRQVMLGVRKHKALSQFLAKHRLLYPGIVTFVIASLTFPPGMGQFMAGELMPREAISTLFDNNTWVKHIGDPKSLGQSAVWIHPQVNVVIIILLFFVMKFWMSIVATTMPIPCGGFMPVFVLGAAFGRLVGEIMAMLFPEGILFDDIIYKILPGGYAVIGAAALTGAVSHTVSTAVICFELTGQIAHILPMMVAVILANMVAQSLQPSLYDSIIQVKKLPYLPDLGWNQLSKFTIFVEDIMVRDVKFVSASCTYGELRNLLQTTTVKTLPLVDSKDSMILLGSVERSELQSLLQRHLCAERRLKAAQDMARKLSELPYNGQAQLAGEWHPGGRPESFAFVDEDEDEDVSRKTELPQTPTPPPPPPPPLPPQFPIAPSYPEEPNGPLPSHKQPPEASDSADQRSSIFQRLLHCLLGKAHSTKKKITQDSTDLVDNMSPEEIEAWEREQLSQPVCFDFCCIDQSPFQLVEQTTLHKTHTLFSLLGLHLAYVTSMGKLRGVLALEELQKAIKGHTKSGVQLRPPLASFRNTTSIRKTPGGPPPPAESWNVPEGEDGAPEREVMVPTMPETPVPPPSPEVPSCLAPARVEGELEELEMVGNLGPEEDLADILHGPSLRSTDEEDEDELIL
Assay: Electrophysiological measurement of compound inhibition of CIC-1 in rat muscle (Gm, three micro-electrode technique, soleus muscle fibres)
Details: reduction of Gm in rat soleus muscle fibres, approx. 30°C; mean ± spread, n = number of experiments
pEC50: −log10 of the molar value.
# pEC50 listing for each entry below
measurement label: pEC50

smiles_str=C[C@H](Oc1ccc(Br)cc1/C=C/F)C(=O)O value_measured=5.52
smiles_str=C[C@H](Oc1ccc(Br)cc1C1CCC1)C(=O)O value_measured=5.37
smiles_str=[2H]C([2H])(C)C(=O)c1cc(Cl)ccc1O[C@@H](C)C(=O)O value_measured=5.08
smiles_str=C=Cc1cc(Br)ccc1O[C@@H](CCF)C(=O)O value_measured=5.40
